System: Salmonella Typhimurium TA 100
Experiment: Ames mutagenesis test with metabolic activation
Format: cell-based
Conditions: relative to metronidazole = 1
reported.endpoint: Index of relative mutagenic power (Compound/Metronidazole)
In your answer, state the number alone without any accompanying words.

compound	measured.number
CN1CCN(CCCn2cncc2[N+](=O)[O-])CC1	0.17
CN1CCN(CCn2cncc2[N+](=O)[O-])CC1	0.17
CCOC(=O)N1CCN(CCCn2cncc2[N+](=O)[O-])CC1	0.31
CN1CCN(CCn2c([N+](=O)[O-])cnc2-c2ccccc2)CC1	0.16
Cc1ncc([N+](=O)[O-])n1CCCN1CCN(C)CC1	0.11

Task: Please give the documented Index of relative mutagenic power (Compound/Metronidazole) of "CCOC(=O)N1CCN(CCCn2c([N+](=O)[O-])cnc2C)CC1"
Output: 0.25

Task: Please give the documented Index of relative mutagenic power (Compound/Metronidazole) of CCS(=O)(=O)CCn1c([N+](=O)[O-])cnc1C [Tinidazole, reference compound]
Output: 0.9

Task: Please give the documented Index of relative mutagenic power (Compound/Metronidazole) of "Cc1ncc([N+](=O)[O-])n1CCN1CCN(C)CC1"
Output: 0.10
